Source of measurements: PubChem BioAssay (NCI)

- Tested on: MALME-3M melanoma
- Assay protocol: NCI-60 one-dose screen, 48 h (100 = growth as untreated, 0 = no growth, -100 = all killed)
- Particulars: 10 µM unless noted
This is part of a sample that, as a whole, favours compounds with a hit. Of some 83,000 tested, about 20% had one in any assay.
Attribute measured: growth (%)

{"Compound": "Cc1ccc(Cc2cnc(NC(=O)/C=C/c3ccc(C)o3)s2)cc1", "Attribute measured": "growth", "Quantitative result": 35.2}
{"Compound": "Cc1nc([P+](c2ccccc2)(c2ccccc2)c2ccccc2)c(N2CCCCC2)o1", "Attribute measured": "growth", "Quantitative result": 53.7}
{"Compound": "N#Cc1c(-c2ccccc2)nc2c(c(-c3ccccc3)nn2-c2ccccc2)c1-c1ccc(N2CCCCC2)cc1", "Attribute measured": "growth", "Quantitative result": 98.6}
{"Compound": "N#Cc1c(-c2cccc(Cl)c2)cc(-c2cccnc2)[nH]c1=O", "Attribute measured": "growth", "Quantitative result": 62.5}
{"Compound": "CCCCNC(=O)c1ccc2c(c1)nc(-c1ccccc1)n2C1CCCCC1", "Attribute measured": "growth", "Quantitative result": 100}
{"Compound": "O=C1OCC2=C1C(c1ccccc1)c1cc3c(cc1N2CCO)OCCO3 (stereo unspecified)", "Attribute measured": "growth", "Quantitative result": 67.1}

====

# growth per record follows
- Tested on: LOX IMVI melanoma
- Assay protocol: NCI-60 one-dose screen, 48 h (100 = growth as untreated, 0 = no growth, -100 = all killed)
- Particulars: 10 µM unless noted
The panel holds about 83,000 compounds, 20% with a hit somewhere; the sample as a whole holds those more often.

{"Molecule": "Cc1cc(C)c2c(c1)N(C)c1ncnc(-n3c(C)nc4cc(C)ccc43)c1CC2C (stereo unspecified)", "growth (%)": 43.1}
{"Molecule": "CN(C)c1ccc(/C=N\\NC(=O)c2ccc3nc(-c4ccc(Cl)cc4)[nH]c3c2)cc1", "growth (%)": 34}
{"Molecule": "CC(C)=CC(=O)N[C@H]1CC[C@]2(C)C3CC[C@]4(C)C(C(C)N(C)C)=CCC4C3CCC2[C@H]1O (stereo partly specified)", "growth (%)": -59.1}
{"Molecule": "CCN(CC)CCOc1ccc(C(=O)/C=C\\c2ccc(Cl)cc2Cl)cc1", "growth (%)": -77.3}
{"Molecule": "C[C@@H]1CN(c2cnc(C(=O)Nc3cc(F)cc4cccnc34)cn2)C[C@H](C)N1", "growth (%)": 72.7}
{"Molecule": "Nc1cc(-c2ccc(Cl)cc2)nn1-c1nnc(/C=C/c2ccco2)c(=O)[nH]1", "growth (%)": 49.9}
{"Molecule": "N=C(N)c1ccc(-c2ccc(-c3ccccc3)o2)o1", "growth (%)": 14.3}
{"Molecule": "Cc1nc([P+](c2ccccc2)(c2ccccc2)c2ccccc2)c(N2CCCCC2)o1", "growth (%)": 24.5}
{"Molecule": "COc1ccc(Oc2ccc(/C=C/C(=O)c3cc4ccccc4oc3=O)cc2)cc1", "growth (%)": 70.7}
{"Molecule": "COc1cc(/C=C/C(=O)c2cc(OC)c(OC)c(OC)c2)ccc1Oc1nc2c(c(=O)n(C)c(=O)n2C)n1C", "growth (%)": -81.1}
{"Molecule": "C=CN(C(=O)N1CCN(c2cc3c(cc2F)c(=O)c(C(=O)O)cn3C2CC2)CC1)c1nc(-c2ccccc2)cs1", "growth (%)": 77.5}

====

# growth per record follows
- Tested on: PC-3 prostate
- Assay protocol: NCI-60 one-dose screen, 48 h (100 = growth as untreated, 0 = no growth, -100 = all killed)
- Particulars: 10 µM unless noted
Compounds without any hit were thinned out: in the full panel of roughly 83,000, 20% have a hit. Active and inactive are the calls of the source. How the source made its calls: active means growth percent below 10; inactive means the rest.
Attribute measured: growth

{"Compound": "COc1cccc(CNc2c3ccccc3nc3ccccc23)c1OC", "Result": "37.6% (inactive)"}
{"Compound": "CNC(=O)Nc1ccc(-c2ccc3ncnc(Nc4cccc(Cl)c4)c3c2)cc1", "Result": "45.1% (inactive)"}
{"Compound": "O=C(/C=C/C12c3ccccc3C(c3ccccc31)C1C(=O)NC(=O)C12)c1ccc(I)cc1 (configuration not stated)", "Result": "34.5% (inactive)"}
{"Compound": "O=C1/C(=C/c2c[nH]c(=O)[nH]c2=O)SC(=S)N1Cc1ccccc1", "Result": "98.9% (inactive)"}
{"Compound": "CC1(C)N=C(N)N=C(N)N1c1ccc(S(=O)(=O)Nc2nccs2)cc1", "Result": "93.7% (inactive)"}
{"Compound": "C[N+]1=C(/C=C/c2ccccc2Cl)C(C)(C)c2ccccc21", "Result": "83.5% (inactive)"}
{"Compound": "CCCCCc1ccc(S(=O)(=O)Nc2cc(-c3csc(NC(C)=O)n3)ccc2N2CCN(C)CC2)cc1", "Result": "41.2% (inactive)"}
{"Compound": "COCCn1cc(-c2csc(-c3c[nH]c4ccccc34)n2)c2cccnc21", "Result": "29.6% (inactive)"}
{"Compound": "CNC(=O)c1cc(Oc2ccc3c(c2)sc2nc(-c4cc(C(F)(F)F)cc(C(F)(F)F)c4)cn23)ccn1", "Result": "45.4% (inactive)"}
{"Compound": "CCN(CC)CCOc1ccc2c(-c3ccccc3)c(-c3ccc(OC)cc3)c(=O)oc2c1", "Result": "65.4% (inactive)"}
{"Compound": "COc1ccc(CNc2ccc3nc(NC(=O)CN4CCCCCC4)sc3c2)cc1", "Result": "65.8% (inactive)"}
{"Compound": "Cc1ccc2cnc(N)c(C#Cc3cc(C(=O)Nc4ccc(CN5CCN(C)CC5)c(C(F)(F)F)c4)cnc3C)c2c1", "Result": "-86.9% (active)"}

====

- Test system: EKVX NSCLC
- Assay protocol: NCI-60 one-dose screen, 48 h (100 = growth as untreated, 0 = no growth, -100 = all killed)
- Particulars: 10 µM unless noted
About 83,000 compounds went through this panel and 20% of them were active in at least one assay; those are over-represented in the sample as a whole.
# growth per record follows

{"Molecule": "CCN(CC)C(=O)C1=C(C)NC(=O)NC1c1ccc2c(c1)OCO2 (stereo not given)", "Test system": "EKVX NSCLC", "Readout units": "%", "growth": 99}
{"Molecule": "C=CCn1cc(-c2nc3ccccc3s2)c2cc(-c3ccc4c5c(cccc35)C(=O)N(CCO)C4=O)ccc21", "Test system": "EKVX NSCLC", "Readout units": "%", "growth": 81.3}
{"Molecule": "Nc1ncnc2c1N=C(c1ccc(Cl)cc1)CC(c1cccc(Nc3ccnc4cc(Cl)ccc34)c1)N2 (stereo not given)", "Test system": "EKVX NSCLC", "Readout units": "%", "growth": 59.4}
{"Molecule": "CCN(CC)C(=O)CC1=C(C)/C(=C/c2[nH]c(-c3ccc[nH]3)cc2OC)N=C1C", "Test system": "EKVX NSCLC", "Readout units": "%", "growth": 32.7}
{"Molecule": "Nc1ncnc2c1N=C(c1ccc(F)cc1)CC(c1cccc(Nc3ccnc4cc(Cl)ccc34)c1)N2 (stereo not given)", "Test system": "EKVX NSCLC", "Readout units": "%", "growth": 64.9}
{"Molecule": "CC(C)(C)OC(=O)CN1CCc2c(sc3ncnc(N4CCN(c5ccc(F)cc5)CC4)c23)C1", "Test system": "EKVX NSCLC", "Readout units": "%", "growth": 95.5}
{"Molecule": "CCOC(=O)c1nnn(Cc2cc(=O)oc3ccc(O)cc23)c1C", "Test system": "EKVX NSCLC", "Readout units": "%", "growth": 105}
{"Molecule": "CCCCCc1ccc(S(=O)(=O)Nc2ccc3nc(N)oc3c2)cc1", "Test system": "EKVX NSCLC", "Readout units": "%", "growth": 33.2}
{"Molecule": "O=C(NCCN1CCOCC1)OCc1ccc2c(Cl)cc(Cl)c(O)c2n1", "Test system": "EKVX NSCLC", "Readout units": "%", "growth": 89.6}
{"Molecule": "O=C(/C=C/c1cccc(Oc2ccccc2)c1)c1ccc(Nc2nc(Nc3ccc(F)cc3)nc(Nc3ccc(Cl)cc3)n2)cc1", "Test system": "EKVX NSCLC", "Readout units": "%", "growth": 106}
{"Molecule": "COc1cccc(CNc2c3ccccc3nc3ccccc23)c1OC", "Test system": "EKVX NSCLC", "Readout units": "%", "growth": 36.3}
{"Molecule": "CN(C)c1ccc(C(=S)c2ccc(N(C)C)cc2)cc1", "Test system": "EKVX NSCLC", "Readout units": "%", "growth": 98.2}
{"Molecule": "CN(C)c1ccc(/C=N\\NC(=O)c2ccc3nc(-c4ccc(Cl)cc4)[nH]c3c2)cc1", "Test system": "EKVX NSCLC", "Readout units": "%", "growth": 73.2}
{"Molecule": "COc1ccc(C/C(C)=C(\\c2ccc(O)cc2)c2ccc(OCCN3CCCCC3)cc2)cc1", "Test system": "EKVX NSCLC", "Readout units": "%", "growth": 90.1}
{"Molecule": "C#CCOc1cccc(Nc2ncnc3cc(NC(=O)CCl)ccc23)c1", "Test system": "EKVX NSCLC", "Readout units": "%", "growth": -49.1}
